Attribute: composite z-score
test: small-molecule microarray binders of probe aDKK1, primary screen, biochemical, biotinylated probe, 635/667 nm fluorescence (AID 1099); conditions: higher = more signal;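 further: score merges 667nm spot fluorescence with signal to noise across triplicate slides; reference of the scale not given here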
metric_name: composite z-score

[
  {
    "smiles_code": "C=CCNC(=O)[C@H]1[C@@H]2C(=O)O[C@@H](c3ccccc3)[C@@H](c3ccccc3)N2[C@@H](c2ccc(O)cc2)[C@]12C(=O)N(C(=O)OCCOC)c1ccc(C#CCC(C(=O)OC)C(=O)OC)cc12",
    "value_reported": 0.119
  },
  {
    "smiles_code": "C=C[C@H](C)[C@H](OC(=O)Nc1ccc(OC)cc1)c1ccc(OCCO)cc1",
    "value_reported": -0.115
  },
  {
    "smiles_code": "C=CCN1C(=O)[C@]2(O[C@H](CCO)[C@@H]([Si](C)(C)c3ccc(OC)cc3)[C@@H]2C)c2cc(N3C(=O)COc4ccccc43)ccc21",
    "value_reported": -0.113
  }
]

----------
Attribute: z-score
experiment: CREB reporter modulators without forskolin, primary screen, cell-based, PC12, CRE-LacZ reporter, unstimulated (AID 1145); settings: no forskolin, luminescence, 4.5 h, higher = more signal, called active from +8 up or from −8 down
metric_name: z-score

[
  {
    "smiles_code": "CCc1cccc(NC(=O)O[C@H]2[C@H](OC(=O)Nc3ccccc3)[C@H](OC(=O)Nc3ccccc3)[C@@H](OC)O[C@@H]2CO)c1",
    "value_reported": 1.03
  },
  {
    "smiles_code": "CCCCNC(=O)c1ccc(C#C[Si](C(C)C)(C(C)C)C(C)C)c(OC(C)=O)c1",
    "value_reported": 0.223
  },
  {
    "smiles_code": "COCCCNC(=O)[C@@]1(c2ccc([N+](=O)[O-])cc2)CC(=O)N(CC23CC4CC(CC(C4)C2)C3)[C@@H]1c1ccc(CO)cc1I",
    "value_reported": -0.825
  },
  {
    "smiles_code": "COCCOC(=O)N1C(=O)[C@@]2(c3cc(C#CCCO)ccc31)[C@H](C(=O)N1CCCCCCC1)[C@H]1C(=O)O[C@H](c3ccccc3)[C@H](c3ccccc3)N1[C@@H]2c1ccccc1OCCO",
    "value_reported": 0.0655
  }
]

----------
molecular target: Homeobox protein Hox-A13 (Mus musculus); experiment: inhibitors of HoxA13-DNA binding, primary screen, biochemical, fluorescence polarization, labeled oligonucleotide (AID 1185); details: 15 min, higher = more signal, called active from +8 up or from −8 down
Could you label it Condition met if measured z-score is -4 or higher, and Condition not met otherwise?

[
  {
    "compound": "[N-]=[N+]=NC[C@H](Cc1ccccc1)NC(=O)c1ccccc1",
    "assigned_category": "Condition met"
  },
  {
    "compound": "COCCOC(=O)N1C(=O)[C@@]2(c3ccccc31)[C@H](c1ccccc1OCCO)N1[C@H](c3ccccc3)[C@H](c3ccccc3)OC(=O)[C@H]1[C@@H]2C(N)=O",
    "assigned_category": "Condition not met"
  },
  {
    "compound": "COc1cc(NN2C(C(O)C3CCCCC3)C=CC3C(=O)N(c4ccccc4)C(=O)C32)cc(OC)c1OC (stereo unspecified)",
    "assigned_category": "Condition not met"
  },
  {
    "compound": "COCCCNC(=O)[C@@H]1c2ccccc2C(=O)N(C2Cc3ccccc3C2)[C@H]1c1ccc(CO)cc1",
    "assigned_category": "Condition met"
  },
  {
    "compound": "O=C1O[C@H](c2ccccc2)[C@H](c2ccccc2)N2[C@H]1[C@@H](C(=O)Nc1nc3ccccc3s1)[C@]1(C(=O)Nc3ccc(C#CC4=CCCCC4)cc31)[C@H]2c1ccc(O)cc1",
    "assigned_category": "Condition met"
  },
  {
    "compound": "CO[C@H]1O[C@H](CO)[C@@H](OC(=O)Nc2cccc(F)c2)[C@H](OC(=O)Nc2ccccc2-c2ccccc2)[C@H]1OC(=O)Nc1ccccc1-c1ccccc1",
    "assigned_category": "Condition not met"
  },
  {
    "compound": "C=C(CCCC)/C(=C/C[C@H](OC(C)=O)c1ccc(OCCO)cc1)c1cc(C(=O)OC)ccc1OC",
    "assigned_category": "Condition met"
  },
  {
    "compound": "COCCCNC(=O)[C@@]1(Sc2ccc(C)cc2)CC(=O)N(C(C)C)[C@@H]1c1ccc(CO)cc1I",
    "assigned_category": "Condition not met"
  },
  {
    "compound": "CCOC(=O)C1=CCN(S(=O)(=O)c2ccc(C)cc2)C1c1ccccc1 (stereo unspecified)",
    "assigned_category": "Condition met"
  },
  {
    "compound": "CCOC(=O)C1=C[C@@H](C(C)(C)C)N(S(=O)(=O)c2ccc(C)cc2)[C@H]1c1ccc(C)cc1",
    "assigned_category": "Condition met"
  },
  {
    "compound": "COC(=O)C1=CC(CCCO)=CC(c2ccc(CN3CCCC3)cc2)N(Cc2cc3c(cc2Br)OCO3)C=C1C(=O)OC (stereo unspecified)",
    "assigned_category": "Condition met"
  },
  {
    "compound": "CN1C(=O)C2C(C1=O)C1C=C(CCCO)C2C(c2cccs2)N1Cc1cc2c(cc1Br)OCO2 (stereo unspecified)",
    "assigned_category": "Condition not met"
  },
  {
    "compound": "C=CCN1C(=O)[C@]2(O[C@H](CCO)[C@@H]([Si](C)(C)c3ccc(OC)cc3)[C@@H]2C)c2cc(NC(=O)c3ccc(OC)cc3)ccc21",
    "assigned_category": "Condition not met"
  },
  {
    "compound": "COCCOC(=O)N1C(=O)[C@@]2(c3cc(C#CCC(C(=O)OC)C(=O)OC)ccc31)[C@H](c1ccc(O)cc1)N1[C@H](c3ccccc3)[C@H](c3ccccc3)OC(=O)[C@H]1[C@@H]2C(=O)NC[C@H](O)c1ccccc1",
    "assigned_category": "Condition met"
  },
  {
    "compound": "C=C(CCCC)C(=O)CC[C@H](OC(C)=O)c1ccc(OCCO)cc1",
    "assigned_category": "Condition not met"
  }
]
